Test system: SF-539 CNS
Assay summary: NCI tumour cell line growth inhibition, 48 h
Measurement label: TGI (µM)
I only need the number, in µM, no unit after it.

1) CC[C@]1(O)CC2CN(CCCc3c([nH]c4ccccc34)[C@@](C(=O)OC)(c3cc4c(cc3OC)N(C)C3C45CCN4CC=C[C@](CC)(C45)C(OC(C)=O)[C@@]3(O)C(=O)OC)C2)C1 (some centres undefined) : 6.03

--- query ---
SF-539 CNS assay, compound COc1ccc([As]=[As]c2ccc(OC)c(NCS(=O)(=O)O)c2)cc1NCS(=O)(=O)O (centres undefined) , recorded TGI = 3.43
